Please go through the items and note down their MFI.
Experimental System: T1, cynomolgus TIM-3 on isolated cyno CD14+ monocytes (cynomolgus)
T1 construct: whole, on cells
Procedure Summary: flow cytometry, cyno CD14+ monocytes cyno3
One number for each entry, in MFI.

[[record]]
binder = "Tim3_0016 (antibody, V domains shown, also called clone 0016) VH: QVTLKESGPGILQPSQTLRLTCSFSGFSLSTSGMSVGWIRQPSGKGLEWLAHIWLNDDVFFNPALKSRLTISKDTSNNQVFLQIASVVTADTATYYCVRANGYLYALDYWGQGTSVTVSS VL: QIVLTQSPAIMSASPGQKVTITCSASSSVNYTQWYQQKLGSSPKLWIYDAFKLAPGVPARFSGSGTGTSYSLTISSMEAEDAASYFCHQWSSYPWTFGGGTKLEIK"
observed_result = 187


Next, consider the following binder.
Exercise: Entry under review: Tim3_0028 (antibody, V domains shown) VH: EVQLQQSVAELVRPGASVKLSCTASGFNIKTTYMHWVKQRPEQGLEWIGRIDPADDNTKYAPKFQGKATITADTSSNTAYLQLSSLTSEDAAIYYCVRDFGYVAWFAYWGQGTLVTFSA VL: NIVMTPTPKFLPVSSGDRVTMTCRASQSVDNYVAWYQQKPGQSPKLLIYYASNRYIGVPDRFTGSGSGTDFTFTISSVQVEDLAVYFCQQHYSSPYTFGSGTKLEIK . Reported MFI?
Solution: 4090
